List of IC50 values.
assayed-target: HO-1 (Rattus norvegicus, UniProt P06762)
Construct: selected in order to use the most native (i.e., closest to in vivo) forms of HO-1 and HO-2; from tissue; host or cells: spleen microsomal fraction of male Sprague-Dawley rats
Sequence (P06762 whole entry): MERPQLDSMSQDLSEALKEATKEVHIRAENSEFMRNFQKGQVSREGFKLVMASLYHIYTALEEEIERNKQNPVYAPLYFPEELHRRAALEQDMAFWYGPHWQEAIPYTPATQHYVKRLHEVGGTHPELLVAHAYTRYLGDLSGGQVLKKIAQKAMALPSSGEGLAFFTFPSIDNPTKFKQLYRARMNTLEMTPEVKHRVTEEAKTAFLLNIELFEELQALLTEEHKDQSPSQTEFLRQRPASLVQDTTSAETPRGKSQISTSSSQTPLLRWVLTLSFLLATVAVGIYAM
protocol-description: HO-1 inhibition, bilirubin formation in rat spleen microsomal fraction
Type: biochemical
condition-summary: experimental values repeated in the docking table; read-out: IC50 exp. (μM) HO-1

Example entries begin here.
OC(Cn1ccnc1)c1cccc(OCc2cccc(Br)c2)c1 (stereo not drawn); 46 µM
Clc1ccc(COC(Cn2ccnc2)c2cccc(Br)c2)cc1 (stereo not drawn); > 100 µM

Note to self: IC50 of OC(Cn1ccnc1)c1ccccc1OCc1ccc(Br)cc1 (stereo not drawn) with HO-1 (Rattus norvegicus, UniProt P06762) was > 100 µM
